tested.on: factor Xa (Homo sapiens, UniProt P00742)
Sequence (P00742 235-488 limits assumed): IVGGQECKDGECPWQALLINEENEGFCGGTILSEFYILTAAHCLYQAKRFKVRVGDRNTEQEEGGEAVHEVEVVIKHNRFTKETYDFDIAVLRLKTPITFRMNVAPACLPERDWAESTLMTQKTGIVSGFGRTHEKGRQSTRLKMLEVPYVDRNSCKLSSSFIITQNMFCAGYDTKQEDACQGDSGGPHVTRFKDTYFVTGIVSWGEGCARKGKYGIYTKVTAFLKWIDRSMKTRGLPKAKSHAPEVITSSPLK
Sequence (P00742 41-179 limits assumed): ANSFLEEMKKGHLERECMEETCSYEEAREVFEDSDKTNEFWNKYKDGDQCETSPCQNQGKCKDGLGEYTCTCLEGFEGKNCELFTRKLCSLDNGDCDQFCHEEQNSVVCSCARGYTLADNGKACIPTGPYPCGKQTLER
test.summary: Influence on factor Xa activity (amidolytic and clotting in factor Xa-deficient plasma)
Assay type: biochemical
reported.conditions: factor Xa 100 nM, 37° C., factor Xa deficient plasma; read-out: Kdapp, inhibition of coagulation upon pre-incubation with factor Xa
No end group written: not given here.
reported.metric: Kd (nM)
The reply should be a number in nM, with the unit left off.

[Q] Given the entry KAQSKKNKHRHSTT [KRAD-14] , report its measured Kd.
[A] 275
